test system: human umbilical vein endothelial cells (HUVEC); assay: HUVEC proliferation assay; format: cell-based; details: Homo sapiens, HUVEC, Table II screening results; 10 nM; crude combinatorial amide library; read-out: % inhibition @ 10 nM
inhibition at 0.01 µM of 20% or higher: rule met. Under 20%: rule not met.

CNC(=O)Nc1nc(N)c(-c2nc(-c3cccc(NC(=O)CC4=CCCCC4)c3)cs2)s1	rule met
CNC(=O)Nc1nc(N)c(-c2nc(-c3cccc(NC(=O)[C@@H](O)C(C)C)c3)cs2)s1	rule not met
CNC(=O)Nc1nc(N)c(-c2nc(-c3cccc(NC(=O)c4cc(C)cc(=O)o4)c3)cs2)s1	rule met
C/C=C/C(=O)Nc1cccc(-c2csc(-c3sc(NC(=O)NC)nc3N)n2)c1	rule not met
CNC(=O)Nc1nc(N)c(-c2nc(-c3cccc(NC(=O)C4C(C)(C)C4(C)C)c3)cs2)s1	rule met

Can CNC(=O)Nc1nc(N)c(-c2nc(-c3cccc(NC(=O)c4cc(F)ccc4C)c3)cs2)s1 be said to have inhibition at 0.01 µM at or above 20%? rule met

Ok, now CNC(=O)Nc1nc(N)c(-c2nc(-c3cccc(NC(=O)Cc4sc(S)nc4C)c3)cs2)s1 rule not met

Ok, now C/C=C(\C)C(=O)Nc1cccc(-c2csc(-c3sc(NC(=O)NC)nc3N)n2)c1 rule not met

Ok, now CNC(=O)Nc1nc(N)c(-c2nc(-c3cccc(NC(=O)C4CNC(=O)N4)c3)cs2)s1 (stereo not drawn) rule not met

###

Overview of reported Ki across a group of molecules:
Biological target: unphosphorylated VEGF-R2Δ50 (FLVK) (Homo sapiens, UniProt P35968, DEL940-989/E990V)
Construct: VEGF-R2Δ50 contains residues 806-939 and 990-1171; made in house; host or cells: baculovirus/insect cells
Sequence (P35968 with tags, fused parts or gaps DEL940-989/E990V limits assumed): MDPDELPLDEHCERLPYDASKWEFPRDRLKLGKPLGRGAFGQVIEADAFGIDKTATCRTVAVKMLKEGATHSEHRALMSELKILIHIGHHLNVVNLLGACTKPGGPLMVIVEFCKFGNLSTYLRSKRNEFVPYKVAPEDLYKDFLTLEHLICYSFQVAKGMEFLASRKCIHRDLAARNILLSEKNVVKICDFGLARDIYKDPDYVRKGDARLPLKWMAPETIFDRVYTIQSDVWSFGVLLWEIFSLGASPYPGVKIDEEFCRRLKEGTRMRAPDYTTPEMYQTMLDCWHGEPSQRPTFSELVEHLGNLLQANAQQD
Test: VEGF-R2 coupled spectrophotometric assay, unphosphorylated enzyme (FLVK)
Assay type: biochemical
Conditions: Table 3; some entries 'Slow binder'
Protocol: VEGF-R2 Construct for Assay: This construct determines the ability of a test compound to inhibit tyrosine kinase activity. […] The production of ADP from ATP that accompanies phosphoryl transfer was coupled to oxidation of NADH using phosphoenolpyruvate (PEP) and a system having pyruvate kinase (PK) and lactic dehydrogenase (LDH). The oxidation of NADH was monitored by following the decrease of absorbance at 340 nm (e340=6.22 cm^−1 mM^−1) using a Beckman DU 650 spectrophotometer. […]
State just the number; it will be interpreted in nM.

COc1cc(Nc2nc(N)c(-c3nc(-c4cc(N)ccc4C)no3)s2)cc(OC)c1OC	33
COc1cccc(C(=O)Nc2cc(-c3noc(-c4sc(NC(=O)NCCN5CCOCC5)nc4N)n3)c(F)cc2F)c1	0.28
COc1cccc(C(=O)Nc2ccc(Cl)c(-c3noc(-c4sc(Nc5cc(OC)c(OC)c(OC)c5)nc4N)n3)c2)c1	1
CC[C@H](CO)NC(=O)Nc1nc(N)c(-c2nc(-c3cc(NC(=O)c4cccc(OC)c4)c(F)cc3F)cs2)s1	1.1
Cc1ccc(NC(=O)C(O)CC(C)C)cc1-c1noc(-c2sc(Nc3cccc(CN4CCCC4)c3)nc2N)n1 (racemic)	0.7

Any idea what its Ki is? The molecule is CCn1nc(C)cc1C(=O)Nc1ccc(C)c(-c2noc(-c3sc(Nc4cccc(CO)c4)nc3N)n2)c1 0.1

Ok, now COc1cccc(C(=O)Nc2cc(-c3noc(-c4sc(NC(=O)NCCO)nc4N)n3)c(F)cc2F)c1 94

Ok, now COc1cccc(C(=O)Nc2cc(-c3csc(-c4sc(NC(=O)NCCOCCO)nc4N)n3)c(F)cc2F)c1 0.29

Ok, now COc1cc(Nc2nc(N)c(-c3nc(-c4cccc(NC(=O)CC5CC6CCC5C6)c4)cs3)s2)cc(OC)c1OC (stereo not shown) 2.8

Ok, now COc1ccc(NC(=O)OC(C)(C)C)cc1-c1noc(-c2sc(Nc3cc(OC)c(OC)c(OC)c3)nc2N)n1 29

Ok, now COc1cccc(C(=O)Nc2cc(-c3noc(-c4sc(NC(=O)NCc5cccnc5)nc4N)n3)c(F)cc2F)c1 0.42

Ok, now COc1cc(Nc2nc(N)c(-c3nc(-c4cc(N)ccc4Cl)no3)s2)cc(OC)c1OC 17

Ok, now Cc1cccc(C(=O)Nc2cccc(-c3noc(-c4sc(NC(=O)NCCCN5CCOCC5)nc4N)n3)c2)c1 0.19

###

target: LCK tyrosine kinase (Homo sapiens, UniProt P06239, C224D/P223M); construct: starting from amino acid residue 223 to the end of the protein at residue 509; assay: LCK spectrophotometric assay; details: Table 3; first value of cells with two values
Observable: pKi
pKi (log units): -log10 of the concentration in mol/L.

Here are 2 compounds together with their reported answers.
COc1cc(Nc2nc(N)c(-c3nc(-c4cc(NC(=O)c5cccc(Cl)c5)ccc4Cl)no3)s2)cc(OC)c1OC	8.49
COc1cccc(C(=O)Nc2ccc(Cl)c(-c3noc(-c4sc(Nc5cc(OC)c(OC)c(OC)c5)nc4N)n3)c2)c1	8.03

Now consider a different compound.
Any idea what its pKi is? The compound is COc1cc(Nc2nc(N)c(-c3nc(-c4cc(NC(=O)c5cccc(Cl)c5)ccc4C)no3)s2)cc(OC)c1OC 8.96

###

Biological target: phosphorylated VEGF-R2Δ50 (FLVK-P) (Homo sapiens, UniProt P35968, DEL940-989/E990V)
Construct: VEGF-R2Δ50 contains residues 806-939 and 990-1171; made in house; host or cells: baculovirus/insect cells
Sequence (P35968 with tags, fused parts or gaps DEL940-989/E990V limits assumed): as above
Assay: VEGF-R2 coupled spectrophotometric (FLVK-P) assay
Type: biochemical
Conditions: read-out: VEGF % inhibition at 20 μM, 20 μM; combinatorial library compounds
Description: VEGF-R2 Construct for Assay: This construct determines the ability of a test compound to inhibit tyrosine kinase activity. […] The production of ADP from ATP that accompanies phosphoryl transfer was coupled to oxidation of NADH using phosphoenolpyruvate (PEP) and a system having pyruvate kinase (PK) and lactic dehydrogenase (LDH). The oxidation of NADH was monitored by following the decrease of absorbance at 340 nm (e340=6.22 cm^−1 mM^−1) using a Beckman DU 650 spectrophotometer. […]
Overview of reported inhibition at 20 µM across a group of molecules:
Please answer using a numeric value trailed by its unit.

Here are 5 molecules together with their reported answers.
CN(C)c1ccc(Nc2nc(N)c(-c3nc(-c4ccc(Cl)c([N+](=O)[O-])c4)cs3)s2)cc1	-2%
Cc1ccc(-c2csc(-c3sc(Nc4ccc(C(C)C)cc4)nc3N)n2)c(C)c1	14%
CN(C)c1ccc(Nc2nc(N)c(-c3nc(-c4ccc5c(c4)CCC(=O)N5)cs3)s2)cc1	20%
Cc1c(-c2csc(-c3sc(Nc4ccc(C(C)C)cc4)nc3N)n2)sc2ccccc12	5%
CC(C)c1ccc(Nc2nc(N)c(-c3nc(-c4ccccc4OC(=O)c4ccccc4)cs3)s2)cc1	7%

Now consider a different molecule.
Any idea what its inhibition at 20 µM is? The molecule is CC(C)c1ccc(Nc2nc(N)c(-c3nc(-c4ccc([N+](=O)[O-])cc4)cs3)s2)cc1 -4%

###

system: human umbilical vein endothelial cells (HUVEC); test: HUVEC proliferation assay; assay type: cell-based; details: Homo sapiens, HUVEC, 50 nM; crude combinatorial urea library; read-out: Inhibition of HUVEC Proliferation % inhibition @ 50 nM
Overview of reported inhibition at 0.05 µM across a group of compounds:
State just the number; it will be interpreted in %.

COc1cccc(C(=O)Nc2cccc(-c3csc(-c4sc(NC(=O)NCCCN(C)C)nc4N)n3)c2)c1	15
COc1cccc(C(=O)Nc2cccc(-c3csc(-c4sc(NC(=O)NCC(C)(C)C)nc4N)n3)c2)c1	34
COc1cccc(C(=O)Nc2cccc(-c3csc(-c4sc(NC(=O)NCCN5CCCC5)nc4N)n3)c2)c1	17

Any idea what its inhibition at 0.05 µM is? The compound is COc1cccc(C(=O)Nc2cccc(-c3csc(-c4sc(NC(=O)NCCOCCO)nc4N)n3)c2)c1 92

Ok, now COc1cccc(C(=O)Nc2cccc(-c3csc(-c4sc(NC(=O)NCCc5cccnc5)nc4N)n3)c2)c1 97

Ok, now COc1cccc(C(=O)Nc2cccc(-c3csc(-c4sc(NC(=O)NCC#N)nc4N)n3)c2)c1 3

Ok, now COc1cccc(C(=O)Nc2cccc(-c3csc(-c4sc(NC(=O)NCC(C)O)nc4N)n3)c2)c1 (centres unmarked) 126

Ok, now CCN(CC)CCCC(C)NC(=O)Nc1nc(N)c(-c2nc(-c3cccc(NC(=O)c4cccc(OC)c4)c3)cs2)s1 (centres unmarked) 68

Ok, now COc1cccc(C(=O)Nc2cccc(-c3csc(-c4sc(NC(=O)NCCCN(C)c5ccccc5)nc4N)n3)c2)c1 98

Ok, now COc1cccc(C(=O)Nc2cccc(-c3csc(-c4sc(NC(=O)NCS(=O)(=O)O)nc4N)n3)c2)c1 8

Ok, now COc1cccc(C(=O)Nc2cccc(-c3csc(-c4sc(NC(=O)NCCCN5CCOCC5)nc4N)n3)c2)c1 83

Ok, now COc1cccc(C(=O)Nc2cccc(-c3csc(-c4sc(NC(=O)NCC(C)(C)N)nc4N)n3)c2)c1 3

Ok, now CNC(=O)Nc1nc(N)c(-c2nc(-c3cccc(NC(=O)c4cccc(OC)c4)c3)cs2)s1 [drawing 606] 115

Ok, now CCN(CC)CCCNC(=O)Nc1nc(N)c(-c2nc(-c3cccc(NC(=O)c4cccc(OC)c4)c3)cs2)s1 45

Ok, now COc1cccc(C(=O)Nc2cccc(-c3csc(-c4sc(NC(=O)NCCCCCCN(C)C)nc4N)n3)c2)c1 24

Ok, now COc1cccc(C(=O)Nc2cccc(-c3csc(-c4sc(NC(=O)NCc5ccncc5)nc4N)n3)c2)c1 116

Ok, now COc1cccc(C(=O)Nc2cccc(-c3csc(-c4sc(NC(=O)NCCC(=O)O)nc4N)n3)c2)c1 8
